Source of measurements: patent US9371331B2

This listing pairs compounds with measured pIC50.
Tgt: Y641N EZH2 (Homo sapiens, UniProt Q15910, Y641N)
Sequence (Q15910 whole entry Y641N): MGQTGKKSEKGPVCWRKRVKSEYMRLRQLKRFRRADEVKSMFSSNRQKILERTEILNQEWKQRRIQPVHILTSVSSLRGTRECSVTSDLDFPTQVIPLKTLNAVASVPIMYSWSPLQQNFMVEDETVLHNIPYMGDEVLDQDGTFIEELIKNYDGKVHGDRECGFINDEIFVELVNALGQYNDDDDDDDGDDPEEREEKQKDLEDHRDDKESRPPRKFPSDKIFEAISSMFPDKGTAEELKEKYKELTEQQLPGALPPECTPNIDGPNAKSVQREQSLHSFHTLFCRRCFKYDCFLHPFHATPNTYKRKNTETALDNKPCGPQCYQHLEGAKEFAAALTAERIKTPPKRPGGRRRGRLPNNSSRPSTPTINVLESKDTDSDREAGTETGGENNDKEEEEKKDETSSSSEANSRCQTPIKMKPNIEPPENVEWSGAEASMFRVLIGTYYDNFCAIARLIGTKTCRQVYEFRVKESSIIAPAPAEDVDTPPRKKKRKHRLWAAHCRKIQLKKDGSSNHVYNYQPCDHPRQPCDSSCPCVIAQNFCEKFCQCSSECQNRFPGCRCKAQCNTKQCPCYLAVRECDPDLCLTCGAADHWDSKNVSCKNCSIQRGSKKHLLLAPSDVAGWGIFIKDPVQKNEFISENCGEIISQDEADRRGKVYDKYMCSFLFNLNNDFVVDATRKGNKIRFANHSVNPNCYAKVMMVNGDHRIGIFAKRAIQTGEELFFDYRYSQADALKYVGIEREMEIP
Sequence (O75530 whole entry partner): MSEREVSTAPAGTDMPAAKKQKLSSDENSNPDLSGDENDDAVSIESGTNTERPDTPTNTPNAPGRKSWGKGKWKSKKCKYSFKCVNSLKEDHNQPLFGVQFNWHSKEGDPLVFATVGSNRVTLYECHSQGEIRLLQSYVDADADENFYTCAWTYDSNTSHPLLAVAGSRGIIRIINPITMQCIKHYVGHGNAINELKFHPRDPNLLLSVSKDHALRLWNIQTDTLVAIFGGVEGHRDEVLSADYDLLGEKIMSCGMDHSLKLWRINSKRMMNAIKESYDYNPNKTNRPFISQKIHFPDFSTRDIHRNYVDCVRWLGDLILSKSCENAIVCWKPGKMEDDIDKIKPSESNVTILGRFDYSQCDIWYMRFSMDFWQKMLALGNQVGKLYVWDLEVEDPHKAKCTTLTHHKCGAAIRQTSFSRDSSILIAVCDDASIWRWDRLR
Sequence (Q15022 whole entry partner): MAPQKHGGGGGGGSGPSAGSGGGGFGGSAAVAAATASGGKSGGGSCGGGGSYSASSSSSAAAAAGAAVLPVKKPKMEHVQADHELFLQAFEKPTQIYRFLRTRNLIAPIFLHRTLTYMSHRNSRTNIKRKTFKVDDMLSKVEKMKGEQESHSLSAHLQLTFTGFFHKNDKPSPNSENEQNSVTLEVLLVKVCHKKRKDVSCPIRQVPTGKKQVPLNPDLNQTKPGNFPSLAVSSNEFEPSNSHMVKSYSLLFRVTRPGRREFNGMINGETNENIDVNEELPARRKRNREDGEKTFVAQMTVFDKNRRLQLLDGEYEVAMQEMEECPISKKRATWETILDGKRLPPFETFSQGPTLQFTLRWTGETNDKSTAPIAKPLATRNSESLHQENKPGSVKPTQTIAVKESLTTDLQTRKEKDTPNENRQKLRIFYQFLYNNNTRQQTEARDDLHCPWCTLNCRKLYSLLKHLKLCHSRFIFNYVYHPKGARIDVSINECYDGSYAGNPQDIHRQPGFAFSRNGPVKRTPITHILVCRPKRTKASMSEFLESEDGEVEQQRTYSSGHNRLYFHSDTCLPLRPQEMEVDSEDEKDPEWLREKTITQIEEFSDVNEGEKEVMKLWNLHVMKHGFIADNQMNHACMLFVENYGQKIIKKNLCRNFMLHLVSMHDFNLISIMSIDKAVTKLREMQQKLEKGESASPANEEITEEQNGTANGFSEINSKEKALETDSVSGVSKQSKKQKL
Assay Notes: Y641N EZH2 assay: as EZH2 assay, with reconstituted H3K27Me2 oligonucleosomes as substrate
Format: biochemical
Run Parameters: Y641N EZH2 IC50, Y641N mutant EZH2, H3K27Me2 oligonucleosome substrate
pIC50: −log10 of the molar value.
Measurement Type: pIC50

> print(dat)
                                    compound       reading
 1  COc1cc(C)[nH]c(=O)c1CNC(=O)c1c(C)n(C(C)C(OC)C2CC2)c2ncccc12 (centres unmarked)  6.00 to 7.00
 2  Cc1cc(C)c(CNC(=O)c2c(C)n(C(C)c3cccc(C#N)c3)c3ccccc23)c(=O)[nH]1 (single isomer, unassigned) [Compound 228]  6.00 to 7.00
 3  CC[C@@H](C)n1c(C)c(C(=O)NCc2c(C)cc(C)[nH]c2=O)c2cnc(Cl)nc21  5.00 to 6.00
 4  CCC(OC)C(C)n1c(C)c(C(=O)NCc2c(C)cc(C)[nH]c2=O)c2ccccc21 (racemic)        > 7.00
 5  Cc1cc(C)c(CNC(=O)c2c(C)n(C(C)c3ccccc3C)c3ccccc23)c(=O)[nH]1 (racemic)  5.00 to 6.00
 6  COCC(C)n1c(C)c(C(=O)NCc2c(OC)cc(C)[nH]c2=O)c2cc(F)ccc21 (racemic)  6.00 to 7.00
 7  Cc1cc(C)c(CNC(=O)c2c(C)n(C(C)c3ccc(Cl)cc3)c3ccccc23)c(=O)[nH]1 (racemic)  6.00 to 7.00
 8  COc1cc(C)[nH]c(=O)c1CNC(=O)c1c(C)n(C(C)C#N)c2ncccc12 (racemic)  5.00 to 6.00
 9  Cc1ccc(C(C)n2c(C)c(C(=O)NCc3c(C)cc(C)[nH]c3=O)c3ccccc32)cc1 (racemic)  6.00 to 7.00
10  Cc1cc(C)c(CNC(=O)c2c(C)n(C(C)C3CCN(C4CN(C)C4)CC3)c3ccccc23)c(=O)[nH]1 (single isomer, unassigned)        > 7.00
11  COc1cc(C)[nH]c(=O)c1CNC(=O)c1c(C)n(C(C)C2CCN(CCF)CC2)c2ccccc12 (single isomer, unassigned)        > 7.00
12  COc1cc(C)[nH]c(=O)c1CNC(=O)c1c(C)n([C@H](C)[C@H](OC)C2CC2)c2ncccc12 (single isomer, unassigned) [Compound 285]  5.00 to 6.00
13  COCC(C)n1c(C)c(C(=O)NCc2c(OC)cc(C)[nH]c2=O)c2ccccc21 (single isomer, unassigned) [Compound 223]  6.00 to 7.00
14  COc1cc(C)[nH]c(=O)c1CNC(=O)c1c(C)n(C(C)C2CCN(CC(F)F)CC2)c2ccccc12 (single isomer, unassigned)        > 7.00
15  COc1cc(C)[nH]c(=O)c1CNC(=O)c1c(C)n(C(C)C2CCOCC2)c2cc(-c3ccccc3)ccc12 (single isomer, unassigned)        > 7.00
16  COc1cc(C)[nH]c(=O)c1CNC(=O)c1c(C)n(C(C)C2CN(S(C)(=O)=O)C2)c2ccccc12 (racemic)        > 7.00
17  COc1nccc(C(C)n2c(C)c(C(=O)NCc3c(OC)cc(C)[nH]c3=O)c3cccnc32)n1 (racemic)  5.00 to 6.00
18  CC[C@@H](C)n1c(C)c(C(=O)NCc2c(C)cc(C)[nH]c2=O)c2cnc(C)nc21  5.00 to 6.00
19  Cc1cc(C)c(CNC(=O)c2c(C)n([C@H](C)c3ccccc3)c3nc(N)ncc23)c(O)n1  6.00 to 7.00
20  CCC(C)n1c(C)c(C(=O)NCc2c(C)cc(C)[nH]c2=O)c2cccnc21 (single isomer, unassigned) [Compound 196]  6.00 to 7.00
21  COCC(C)n1c(C)c(C(=O)NCc2c(OC)cc(C3CC3)[nH]c2=O)c2cccnc21 (racemic)  5.00 to 6.00
22  COc1cc(C)[nH]c(=O)c1CNC(=O)c1c(C)n(C(C)c2ccnc(N3CCNCC3)c2)c2ccccc12 (racemic)        > 7.00
23  CCOCC(C)n1c(C)c(C(=O)NCc2c(OC)cc(C)[nH]c2=O)c2cccnc21 (racemic)  6.00 to 7.00
24  COc1cc(C)[nH]c(=O)c1CNC(=O)c1c(C)n(C(C)C2CCN(CC(=O)O)CC2)c2ccccc12 (single isomer, unassigned)  6.00 to 7.00
25  CCN1CCC(C(C)n2c(C)c(C(=O)NCc3c(OC)cc(C)[nH]c3=O)c3ccccc32)CC1 (single isomer, unassigned)        > 7.00
26  COc1cc(C)[nH]c(=O)c1CNC(=O)c1c(C)n(C(C)CS(C)(=O)=O)c2ccccc12 (single isomer, unassigned) [Compound 278]  5.00 to 6.00
